TARGET_OR_TEST_SYSTEM: AChE (Electrophorus electricus)
Sequence (O42275 24-633): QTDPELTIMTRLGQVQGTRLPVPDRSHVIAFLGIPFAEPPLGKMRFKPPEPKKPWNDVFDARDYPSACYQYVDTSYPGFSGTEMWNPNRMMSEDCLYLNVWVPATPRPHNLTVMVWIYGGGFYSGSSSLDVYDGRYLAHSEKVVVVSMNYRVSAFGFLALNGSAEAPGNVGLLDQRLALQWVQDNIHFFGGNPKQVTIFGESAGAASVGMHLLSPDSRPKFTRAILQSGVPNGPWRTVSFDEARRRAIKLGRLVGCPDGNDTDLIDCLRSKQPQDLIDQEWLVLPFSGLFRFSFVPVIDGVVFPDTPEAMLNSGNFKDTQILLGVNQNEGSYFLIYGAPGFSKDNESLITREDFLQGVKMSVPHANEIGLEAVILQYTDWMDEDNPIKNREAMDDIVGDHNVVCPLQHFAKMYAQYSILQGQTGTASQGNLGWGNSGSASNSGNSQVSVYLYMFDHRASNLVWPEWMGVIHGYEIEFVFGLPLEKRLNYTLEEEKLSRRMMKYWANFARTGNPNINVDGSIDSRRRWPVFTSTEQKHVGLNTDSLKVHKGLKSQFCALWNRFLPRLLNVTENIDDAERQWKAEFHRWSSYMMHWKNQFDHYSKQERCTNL
METHOD_SUMMARY: AChE inhibition, modified Ellman spectrophotometric method
Type: biochemical
ASSAY_CONDITIONS: read-out: AChE % Inhibition 10^-6 M
Procedure: The reagents and materials used in the enzyme inhibition assay were supplied commercially from Sigma-Aldrich (St. Louis, MO, USA) and Fluka (Steinheim, Germany). […] Moreover, the IC50 values were calculated with the help of GraphPad ‘PRISM’ software (version 5.0) by using a dose–response curve achieved by plotting the percentage inhibition versus the log concentration. […] Therefore, the IC50 values of the selected compounds and reference agents were calculated.
// reported inhibition at 1 µM per item
Record the value in %, omitting the unit from your answer.

Examples with their reported inhibition at 1 µM follow.
Enquiry: For the molecule COc1cccc(C=NNc2nc(-c3ccc(C(F)(F)F)cc3)cs2)c1 , report inhibition at 1 µM.
Return: 74.8

Enquiry: For the molecule COc1ccc(C=NNc2nc(-c3ccc(C(F)(F)F)cc3)cs2)cc1OC , report inhibition at 1 µM.
Return: 76.9

Enquiry: For the molecule Oc1cccc(C=NNc2nc(-c3ccc(C(F)(F)F)cc3)cs2)c1 , report inhibition at 1 µM.
Return: 74.2

New cases:
Enquiry: For the molecule COc1ccc(C=NNc2nc(-c3ccc(C(F)(F)F)cc3)cs2)cc1O , report inhibition at 1 µM.
Return: 81

Enquiry: For the molecule COc1ccccc1C=NNc1nc(-c2ccc(C(F)(F)F)cc2)cs1 , report inhibition at 1 µM.
Return: 67.3

Enquiry: For the molecule COc1ccc(O)c(C=NNc2nc(-c3ccc(C(F)(F)F)cc3)cs2)c1 , report inhibition at 1 µM.
Return: 62.1

Enquiry: For the molecule Oc1ccc(C=NNc2nc(-c3ccc(C(F)(F)F)cc3)cs2)cc1 , report inhibition at 1 µM.
Return: 63.8
